# Tgt: human Factor XIa (Homo sapiens (Human))
# Sequence (P03951 388-625): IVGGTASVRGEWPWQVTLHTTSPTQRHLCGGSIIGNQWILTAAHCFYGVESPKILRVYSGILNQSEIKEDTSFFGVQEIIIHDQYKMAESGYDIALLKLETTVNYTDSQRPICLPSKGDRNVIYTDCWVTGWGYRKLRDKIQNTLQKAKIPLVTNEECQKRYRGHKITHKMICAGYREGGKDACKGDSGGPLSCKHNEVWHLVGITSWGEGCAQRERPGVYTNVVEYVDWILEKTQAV
# Sequence (P03951 19-387 partner): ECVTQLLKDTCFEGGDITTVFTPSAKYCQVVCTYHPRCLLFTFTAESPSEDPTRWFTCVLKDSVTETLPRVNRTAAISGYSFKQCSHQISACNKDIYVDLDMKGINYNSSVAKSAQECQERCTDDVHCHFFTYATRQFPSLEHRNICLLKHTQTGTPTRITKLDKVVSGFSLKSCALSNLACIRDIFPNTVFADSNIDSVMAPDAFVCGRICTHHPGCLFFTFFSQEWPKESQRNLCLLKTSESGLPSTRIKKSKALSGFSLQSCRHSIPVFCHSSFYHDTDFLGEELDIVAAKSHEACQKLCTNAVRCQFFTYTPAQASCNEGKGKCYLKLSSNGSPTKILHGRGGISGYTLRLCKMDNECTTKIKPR
# Assay Name: Factor XIa Assay
# Format: biochemical
# Experimental Context: human Factor XIa 0.04 nM, 30 min pre-incubation at 25° C., substrate GPR-AFC; read-out: FXIa IC50
Recorded Metric: IC50

* O=C(O)c1ccc(NC(=O)[C@H](CC2CC2)c2ccc(-c3c(C(F)F)ccc(Cl)c3F)c[n+]2[O-])cc1 (mixture of isomers) [Example 23] | 0.9 nM
* O=C(O)c1ccc(NC(=O)[C@H](CC2CC2)c2ccc(-c3c(OCC4CC4)ccc(Cl)c3F)c[n+]2[O-])cc1 [Example 13] | 6.9 nM
* CC1CC1C[C@H](C(=O)Nc1ccc(C(=O)O)cc1)c1ccc(-c2c(C(F)F)ccc(Cl)c2F)c[n+]1[O-] (single isomer, unassigned) [Example 61] | 55 nM
